target: CYP2C9 (Homo sapiens, UniProt P11712); experiment: CYP inhibition in human liver microsomes (Eurofins ITEMG232); format: in vitro ADME; design: isoform-specific substrates incubated with human liver microsomes; tissue Eurofins ITEMG232 (protocol number); host or cells: human liver microsomes; conditions: human, probe diclofenac, substrate diclofenac, read-out: CYP2C9 Inh %
Sequence (P11712 whole entry, canonical isoform): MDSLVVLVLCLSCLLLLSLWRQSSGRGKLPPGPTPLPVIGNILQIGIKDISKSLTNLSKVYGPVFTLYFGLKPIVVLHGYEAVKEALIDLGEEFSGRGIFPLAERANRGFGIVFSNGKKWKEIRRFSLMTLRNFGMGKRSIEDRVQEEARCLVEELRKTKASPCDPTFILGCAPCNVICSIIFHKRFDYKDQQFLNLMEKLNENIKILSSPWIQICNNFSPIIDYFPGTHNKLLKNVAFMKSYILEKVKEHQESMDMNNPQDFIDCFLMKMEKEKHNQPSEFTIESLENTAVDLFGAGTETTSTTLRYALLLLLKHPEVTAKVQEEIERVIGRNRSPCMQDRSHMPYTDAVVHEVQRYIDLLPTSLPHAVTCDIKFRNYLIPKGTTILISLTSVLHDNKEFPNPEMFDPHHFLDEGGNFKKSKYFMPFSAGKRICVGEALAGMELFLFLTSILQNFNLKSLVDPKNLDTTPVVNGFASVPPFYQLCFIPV
Experimental readout: inhibition at 10 µM (%)

Examples with their reported inhibition at 10 µM follow.
Molecule: CC(C)Cc1ccc(S(=O)(=O)Nc2ncc(Br)cn2)c(-c2ccc(Cn3ccnc3C(C)(C)C)c(F)c2)c1 [Example 11]
Meas value: 82

Molecule: COc1ccc(NS(=O)(=O)c2ccc(CC(C)C)cc2-c2ccc(Cn3ccnc3C(C)(C)C)c(F)c2)nn1 [Example 23]
Meas value: 42.9

Molecule: CC(C)Cc1ccc(S(=O)(=O)Nc2ncc(Br)cn2)c(-c2ccc(Cn3ccnc3C(C)(C)C)cc2)c1 [Example 1]
Meas value: 60.5

Molecule: Cc1nccn1Cc1ccc(-c2cc(CC(C)C)ccc2S(=O)(=O)Nc2ncccn2)cc1F [Example 28]
Meas value: 31.1

Molecule: Cc1nccn1Cc1ccc(-c2cc(CC(C)C)sc2S(=O)(=O)Nc2ncccn2)cc1F [Example 44]
Meas value: 30

I = CC(C)Cc1ccc(S(=O)(=O)Nc2ncccn2)c(-c2ccc(Cn3ccnc3)c(F)c2)c1 [Example 30]
II = CC(C)Cc1ccc(S(=O)(=O)Nc2ncc(F)cn2)c(-c2ccc(Cn3ccnc3C(C)(C)C)cc2)c1 [Example 3]
III = CC(C)Cc1ccc(S(=O)(=O)Nc2ncccn2)c(-c2ccc(Cn3ccnc3C(C)C)c(F)c2)c1 [Example 27]
Rank by inhibition at 10 µM (largest to smallest). Please list the labels according to the requested order. I, III, II

a = CC(C)Cc1ccc(S(=O)(=O)Nc2ncc(Cl)cn2)c(-c2ccc(Cn3ccnc3C(C)(C)C)c(F)c2)c1 [Example 10]
b = Cc1nc(NS(=O)(=O)c2ccc(CC(C)C)cc2-c2ccc(Cn3ccnc3C(C)(C)C)c(F)c2)oc1C [Example 24]
Which shows the larger inhibition at 10 µM value: a or b ? Identify your pick by its label. a

A = Cc1cnc(NS(=O)(=O)c2ccc(CC(C)C)cc2-c2ccc(Cn3ccnc3C(C)(C)C)cc2)nc1 [Example 20]
B = CCc1nccn1Cc1ccc(-c2cc(CC(C)C)ccc2S(=O)(=O)Nc2ncccn2)cc1F [Example 29]
Param metric = inhibition at 10 µM; output whichever of A , B has the minimum value. Identify your pick by its label. B
(B: 43%, A: 69%)
